Tested on: PAF-induced hypotension in normotensive rats
procedure_text: Test 2- Inhibition of PAF-induced hypotension in normotensive rats
Format: in vivo, Male Sprague-Dawley rats
experimental_context: Rattus norvegicus, 0.05 h; intravenous, 3 min. before PAF (0.5 μg/Kg); read-out: ID50 (dose of test compound required to inhibit hypotension by 50%)
Measured ED50 values are reported for all entries that follow.
Numbers only here, please. The scale is mg/kg.

structure_smiles: CCOC(=O)[C@H](CC(C)C)N(Cc1ccc(N)cc1)S(=O)(=O)c1ccc(Cn2c(C)nc3cnccc32)cc1
ED50 (mg/kg): 0.033
--
structure_smiles: Cc1nc2cnccc2n1CC1CCN(C(=O)CC(C)(C)c2ccc(N)cc2)CC1
ED50 (mg/kg): 0.099
--
structure_smiles: CCOC(=O)[C@H](CC(C)C)N(C(=O)c1ccc(N)cc1)S(=O)(=O)c1ccc(Cn2c(C)nc3cnccc32)cc1
ED50 (mg/kg): 0.15
--
structure_smiles: CCOC[C@H](CC(C)C)N(Cc1ccc(N)cc1)S(=O)(=O)c1ccc(Cn2c(C)nc3cnccc32)cc1
ED50 (mg/kg): 0.14

Now turn to the next molecule.
Provide the documented ED50 with PAF-induced hypotension in normotensive rats as the system for Cc1nc2cnccc2n1CC1CCN(C(=O)CN(c2ccccc2)S(=O)(=O)c2ccc(N)cc2)CC1
0.088

###

System: platelet aggregation induced by PAF
procedure_text: Test 1-Inhibition of platelet aggregation induced by PAF (C18-PAF, 15 nM)
Type: cell-based, male New Zealand rabbits
experimental_context: rabbit platelet rich plasma, 15 nM C18-PAF; read-out: IC50 (concentration of drug required to inhibit platelet aggregatory response by 50%)
Measured IC50 values are reported for all entries that follow.
Numbers only here, please. The scale is nM.

structure_smiles: Cc1nc2cnccc2n1CC1CCN(C(=O)/C=C(/c2ccccc2)c2ccc(N)cc2)CC1
readout_label: IC50
observed_measurement: 18

Now turn to the next compound.
What value of measured IC50 is listed for Cc1nc2cnccc2n1CC1CCN(C(=O)/C=C(\c2ccccc2)c2ccc(N)cc2)CC1 ?
5
